Target: Dipeptidyl peptidase 2 (Homo sapiens, UniProt Q9UHL4)
pIC50: −log10 of the molar value.
quantity: pIC50

So what pIC50 did N[C@@H](CC(=O)N1CCc2c(noc2C(F)(F)F)C1)Cc1cc(F)ccc1F get with Dipeptidyl peptidase 2 (Homo sapiens, UniProt Q9UHL4)?
< 4.00

###

Assay: Oral bioavailability of compound in rats dosed at 2 mg/kg p.o.
Format: ADME, organism-based
Conditions: rat, in vivo
quantity: bioavailability (%)

N[C@@H](CC(=O)N1CCc2sc(C(F)(F)F)nc2C1)Cc1cc(F)ccc1F 16

1 = CS(=O)(=O)c1ccc(-c2nc3c(s2)CCN(C(=O)C[C@H](N)Cc2cc(F)ccc2F)C3)cc1
2 = N[C@@H](CC(=O)N1CCc2sc(-c3ccc(F)cc3)nc2C1)Cc1cc(F)ccc1F
API: POST /compare with 1 and 2 ; response names the item with higher bioavailability. State the label of the item chosen.
2

###

Experiment: Half-life of compound in rats dosed at 1 mg/kg i.v.
Type: ADME, organism-based
Parameters: dose 1 mg/kg, route intravenous
Conditions: rat, in vivo, iv
quantity: half-life (h)

CS(=O)(=O)c1ccc(-c2nc3c(s2)CCN(C(=O)C[C@H](N)Cc2cc(F)ccc2F)C3)cc1 1.5

1 = N[C@@H](CC(=O)N1CCc2sc(-c3ccc(F)cc3)nc2C1)Cc1cc(F)ccc1F
2 = N[C@@H](CC(=O)N1CCc2sc(C(F)(F)F)nc2C1)Cc1cc(F)ccc1F
Among 1 and 2 , whose measured half-life is the smaller figure? State the label of the item chosen.
2

###

Experiment: Plasma clearance of compound in rats dosed at 1 mg/kg i.v.
Assay type: ADME, organism-based
Parameters: dose 1 mg/kg, route intravenous
Conditions: rat, iv
quantity: clearance (mL/min/kg)

N[C@@H](CC(=O)N1CCc2sc(-c3ccc(F)cc3)nc2C1)Cc1cc(F)ccc1F 91

A = CS(=O)(=O)c1ccc(-c2nc3c(s2)CCN(C(=O)C[C@H](N)Cc2cc(F)ccc2F)C3)cc1
B = N[C@@H](CC(=O)N1CCc2sc(C(F)(F)F)nc2C1)Cc1cc(F)ccc1F
Among A and B , whose measured clearance is the smaller figure? State the label of the item chosen.
A
